SYSTEM TESTED: porcine succinate-cytochrome c reductase (SCR, the mixture of complex II and bc1) (Sus scrofa, UniProt P24964)
Construct: T h e S C R f r o m p o r c i n e h e a r t; from tissue; host or cells: porcine heart
Sequence (P24964 whole entry, one chain of several): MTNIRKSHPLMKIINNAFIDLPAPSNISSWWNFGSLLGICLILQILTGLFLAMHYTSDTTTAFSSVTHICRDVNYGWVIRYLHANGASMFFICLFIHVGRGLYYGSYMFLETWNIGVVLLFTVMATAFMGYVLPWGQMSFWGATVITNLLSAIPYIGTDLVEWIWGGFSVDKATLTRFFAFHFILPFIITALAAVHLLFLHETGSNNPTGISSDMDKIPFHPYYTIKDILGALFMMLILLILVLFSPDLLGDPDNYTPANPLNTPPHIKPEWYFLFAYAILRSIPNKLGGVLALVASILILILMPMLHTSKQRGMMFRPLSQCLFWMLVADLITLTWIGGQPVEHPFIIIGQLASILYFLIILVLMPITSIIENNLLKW
TEST DETAILS: SCR activity, succinate-cytochrome c system (Assay 1)
Type: biochemical
MEASUREMENT PARAMETERS: Table S1, experimental binding free energy change vs compound 1
Reported ∆∆Gexp by item:
All answers are understood in kcal/mol, so give the number only.

SMILES INPUT	∆∆Gexp, kcal/mol
CO/C=C(/C(=O)OC)c1ccccc1CSc1nc2cc([N+](=O)[O-])ccc2s1	-2.60
CO/N=C(/C(=O)OC)c1ccccc1CSc1nc2ccc(F)cc2s1	0.55

Input "CO/N=C(/C(=O)OC)c1ccccc1CSc1nc2ccc(Br)cc2s1" . Output ∆∆Gexp: -1.31

----------
SYSTEM TESTED: porcine succinate-cytochrome c reductase (SCR, the mixture of complex II and bc1) (Sus scrofa, UniProt P24964)
Construct: T h e S C R f r o m p o r c i n e h e a r t; from tissue; host or cells: porcine heart
TEST DETAILS: SCR activity, succinate-cytochrome c system (Assay 1)
Type: biochemical
MEASUREMENT PARAMETERS: Table S1, experimental binding free energy change vs compound 1
REPORTED PROPERTY: ∆∆Gexp (kcal/mol)
Return type: number; implicit unit kcal/mol.

MOLECULE	UNIT DESCRIPTOR	∆∆Gexp
CO/C=C(/C(=O)OC)c1ccccc1CSc1nc2ccc(Cl)cc2s1 [Compound 23]	kcal/mol	-1.44
CO/C=C(/C(=O)OC)c1ccccc1CSc1nc2ccc(F)cc2s1 [Compound 22]	kcal/mol	-1.22
CO/N=C(/C(=O)OC)c1ccccc1CSc1nc2cc(F)ccc2s1 [Compound 52]	kcal/mol	-0.28
CO/C=C(/C(=O)OC)c1ccccc1CSc1nc2cc(Cl)ccc2s1 [Compound 13]	kcal/mol	-2.26
CO/N=C(/C(=O)OC)c1ccccc1CSc1nc2cc(Cl)ccc2s1 [Compound 53]	kcal/mol	-1.42

Form: molecule = CO/N=C(/C(=O)OC)c1ccccc1CSc1nc2ccc(Cl)cc2s1 [Compound 63] ; ∆∆Gexp = -0.71

Briefly, ∆∆Gexp measured for CO/C=C(/C(=O)OC)c1ccccc1CSc1nc2c(F)cccc2s1 [Compound 2] : 0.09

The recorded ∆∆Gexp for CO/N=C(/C(=O)OC)c1ccccc1CSc1nc2c(Cl)cccc2s1 [Compound 43] is 0.77

Consider CO/C=C(/C(=O)OC)c1ccccc1CSc1nc2ccc(Br)cc2s1 [Compound 24] . Its measured ∆∆Gexp is -1.96

----------
SYSTEM TESTED: porcine succinate-cytochrome c reductase (SCR, the mixture of complex II and bc1) (Sus scrofa)
Construct: T h e S C R f r o m p o r c i n e h e a r t; from tissue; host or cells: porcine heart
TEST DETAILS: SCR activity, succinate-cytochrome c system (Assay 1)
Type: biochemical
REPORTED PROPERTY: Ki (nM)
Return type: number; implicit unit nM.

Some compounds with recorded Ki:
COMPOUND	Ki / nM
CO/N=C(/C(=O)OC)c1ccccc1CSc1nc2cc([N+](=O)[O-])ccc2s1 [Compound 55]	1.07
CO/C=C(/C(=O)OC)c1ccccc1CSc1nc2ccc(F)cc2s1 [Compound 22]	3.97
CO/C=C(/C(=O)OC)c1ccccc1CSc1nc2cc(Cl)ccc2s1 [Compound 13]	0.69
CO/C=C(/C(=O)OC)c1ccccc1CSc1nc2cc(F)ccc2s1 [Compound 12]	2.15
CO/C=C(/C(=O)OC)c1ccccc1CSc1nc2ccc(C(F)(F)F)cc2s1 [Compound 27]	0.81
CO/C=C(/C(=O)OC)c1ccccc1CSc1nc2ccc(C)cc2s1 [Compound 26]	1.15
COC=C(C(=O)OC)c1ccccc1CSc1nc2cc(OC)ccc2s1 [Compound 18]	4.1
CO/C=C(/C(=O)OC)c1ccccc1CSc1nc2ccc(Cl)cc2s1 [Compound 23]	2.75

CO/C=C(/C(=O)OC)c1ccccc1CSc1nc2ccc(Br)cc2s1 [Compound 24] yielded Ki of 1.15

Kindly note the recorded Ki for CO/N=C(/C(=O)OC)c1ccccc1CSc1nc2cc(Cl)ccc2s1 [Compound 53] , which is 2.84
